# System: SN12C renal
# ASSAY REMARKS: NCI tumour cell line growth inhibition, 48 h
Property: TGI; scope: individual molecules

Request: Entry CC(=O)Nc1ccc(S(=O)(=O)Nc2cnc3ccccc3n2)cc1 has what TGI?
Result: > 100 µM

Request: Would you mind telling me what TGI value was observed for CCN1CC2(CO)CCC(OC)C34C5CC6C(OC)CC(O)(C5C6OC)C(O)(C(OC)C23)C14 (stereo not given) ?
Result: > 375 µM

Request: Need TGI, item C=c1c2ccccc2oc2nc3[nH]c(N)c(C#N)c(N)c3c(=N)c12
Result: > 100 µM

Request: Tell me the measured TGI of CS(=O)(=O)Nc1cc(-c2ccc3ncnc(Nc4ccc(OCc5ccccn5)c(Cl)c4)c3c2)cnc1Cl , please.
Result: > 100 µM

Request: I'd like to know its TGI. The molecule in question is Clc1ccc(CCNCCNC2(c3cc4ccccc4s3)CCCCC2)cc1Cl
Result: 3.53 µM

Request: Given the entry CCCCCCCC(=O)[O-].N.N.N.N.N.[Co+3].[O-][Cl+3]([O-])([O-])[O-] , report its measured TGI.
Result: > 100 µM

Request: For COc1ccc(C2CC(=O)Nc3c2c(C)nn3-c2nc3ccccc3[nH]2)cc1OC (stereo not given) , what is its reported TGI?
Result: 35.5 µM

Request: // lookup TGI for CCN(CC(O)COc1ccc2c(c1)[n+]([O-])nc(N)[n+]2[O-])C(C)=O (stereo not given)
Result: > 100 µM

Request: Give its TGI value. Item: O=C(Cn1cc(I)c(C(=O)NCC(O)CO)n1)NCC(O)CO (stereo not given)
Result: > 100 µM

Request: I am curious: what TGI value has been reported for COc1ccc(/C=C2\CCC(C)(CN(C)C)C2=O)cc1Br (stereo not given) ?
Result: 31.8 µM

* * *

# System: NCI/ADR-RES ovarian
# ASSAY REMARKS: NCI tumour cell line growth inhibition, 48 h
// values below are reported TGI

Answered examples (8):
Request: Requested read-out: TGI. Entry: CC(C)(C)c1ccc(OCCOc2ccc(C(C)(C)C)cc2NC=O)c(NC=O)c1
Result: 37.7 µM

Request: Entry CN1CCN(CCCn2c3c(sc4ncccc43)c(=O)n3nnc(-c4ccccc4)c23)CC1 : reported TGI = ?
Result: 4.77 µM

Request: Which TGI reading was recorded for the compound Cn1c(=Nc2ccccc2[N+](=O)[O-])sc2ccccc21 ?
Result: > 100 µM

Request: Dear colleague, I am looking for the recorded TGI of the following compound: C=CCNc1nc2c(N)ncnc2s1
Result: > 10 µM

Request: So what's the measured TGI for this one? c1ccc(OCC[P+](c2ccccc2)(c2ccccc2)c2ccccc2)cc1
Result: > 100 µM

Request: For CN1C(=O)c2c(c3c4ccccc4n(C)c3c3c2c2ccccc2n3C)C1=O , what is its reported TGI?
Result: > 100 µM

Request: For the compound shown here, COc1cc(/C=C/[N+](=O)[O-])cc(OC)c1 , give the reported TGI.
Result: 13.6 µM

Request: Would you mind telling me what TGI value was observed for O=C1C(Nc2ccc(S(=O)(=O)Nc3cnc4ccccc4n3)cc2)=CC(=Nc2ccc(S(=O)(=O)Nc3cnc4ccccc4n3)cc2)c2ccccc21 ?
Result: > 100 µM

Continuing:
Request: Entry C1=Nc2ccc(cc2)-c2ccc(cc2)N=Cc2ccccc2OCc2cccc(n2)COc2ccccc21 : reported TGI = ?
Result: > 100 µM

Request: For COc1ccc(/C=C2\CCC(C)(CN(C)C)C2=O)cc1Br (stereo unspecified) , what is its reported TGI?
Result: 43.2 µM

Request: Entry CC1NCCC(CC(=O)O)C1CC(=O)O (stereo unspecified) : reported TGI = ?
Result: > 100 µM

Request: TGI for C=C1[C@H](O)C[C@@H](C(C)C(O)CC=C(C)C)[C@@H](O)[C@@H]2C(C)=CC[C@@H]12 (stereo partly specified) ?
Result: > 100 µM

Request: Need TGI of OC[C@@H](O)[C@H](O)[C@H](O)[C@@H](O)C1SCCCS1 , thanks.
Result: > 100 µM

Request: Item under review: Cc1cc2nc3c(C)c4ccccc4c(C)n3c2cc1C . Reported TGI?
Result: 8.41 µM

Request: What value of TGI has been recorded for this entry: O=C(Nc1n[nH]c2cc(-c3ccc(F)cc3)ccc12)C1CC1
Result: 22.6 µM

Request: Entry CCc1c[n+]2c(cc1C1=CN3c4ccccc4[C@]45CCN6C/C(=C/CO)[C@H](C[C@H]64)[C@@H]([C@@H]1O)[C@H]35)-c1[nH]c3ccccc3c1CC2 has what TGI?
Result: > 50 µM

Request: Recorded TGI of CCCCCCCN(CCCCCCC)C(=N)c1ccc(OC)c2ccccc12 , please.
Result: 3.05 µM

Request: Item under review: N#Cc1ccccc1C#C/C=C\C#Cc1ccccn1 . Reported TGI?
Result: 34.3 µM

Request: Item under review: O=C1/C(=C/Cc2ccco2)N=C(c2ccccc2)N1c1nc2ccc(Sc3ccccc3)cc2[nH]1 . Reported TGI?
Result: 72.4 µM

* * *

# System: U251 CNS
# ASSAY REMARKS: NCI tumour cell line growth inhibition, 48 h
QUANTITY MEASURED: TGI (µM)
Report the figure in µM without appending any unit label.

Request: What value of TGI has been recorded for this entry: CC(=O)OC1CC[C@@]2(C)C(=CC[C@@H]3[C@@H]2CC[C@]2(C)Nc4c(cnn4-c4ccc(F)cc4)C[C@@H]32)C1 (stereo not given in full)
Result: 47.3

Request: Query (compound): COc1ccc(/C=C2\CCC(C)(CN(C)C)C2=O)cc1Br (stereo not given) ; field requested: TGI
Result: 45.1

# next compound below
Request: Need TGI of CN1CCN(CCCn2c3c(sc4ncccc43)c(=O)n3nnc(-c4ccccc4)c23)CC1 , thanks.
Result: 3.3

* * *

# Tested on: ACHN renal
# ASSAY REMARKS: NCI tumour cell line growth inhibition, 48 h
Measured TGI accompanies every entry in the list below.

Request: I am curious: what TGI value has been reported for Clc1cccc(C=NC23CC4CC(CC(C4)C2)C3)c1Cl ?
Result: > 10 µM

Request: What does the record list as TGI for O=C(/C=C/c1cc2ccccc2[nH]c1=O)c1ccc(O)cc1 ?
Result: 8.86 µM

Others:
Request: Entry under review: OC[C@H](O)[C@@H](OCc1ccccc1)[C@H](NCc1ccccc1)c1cccs1 . Reported TGI?
Result: > 100 µM

Request: Fill in: TGI of COc1ccccc1-c1nc[nH]c1-c1ccccc1OC is ___
Result: > 100 µM

Request: Looking for the measured TGI of CCCC(CCC(=O)O)(CCC(=O)O)[N+](=O)[O-] , can you help?
Result: > 100 µM

Request: Need TGI, item Cc1ccc(S(=O)(=O)N(CC(O)COc2ccccc2)c2ccccc2Cl)cc1 (stereo not given)
Result: 33.7 µM

Request: Give its TGI value. Item: CN(C)CCNC(=O)c1cccc2c(NC(CCCN=C(N)N)C(=O)O)c3ccccc3nc12 (stereo not given)
Result: > 100 µM

* * *

# System: SK-OV-3 ovarian
# ASSAY REMARKS: NCI tumour cell line growth inhibition, 48 h; in the data active = GI50 below about 0.43 µM; inactive = the rest
Parameter call: string, one of yes = active, no = inactive

Completed entries (count: 5):
Request: Hi team, can someone confirm the assay call for O=C(Nc1cccc(Cl)c1)Nc1cc(C(F)(F)F)ccc1Cl ?
Result: no

Request: Call for entry COC1C[C@H](O[C@@H]2C[C@H](O[C@@H]3C[C@H](O[C@@H]4C(=O)c5c(cc6cc(O[C@H]7C[C@@H](O[C@H]8C[C@@H](O)[C@H](O)C(C)O8)[C@H](O)C(C)O7)c(C)c(O)c6c5O)C[C@H]4C(OC)C(=O)[C@@H](O)[C@@H](C)O)OC(C)[C@H]3O)OC(C)[C@@H]2O)OC(C)[C@@H]1O (stereo partly specified) :
Result: yes

Request: What is the recorded call for this molecule in the test? O=C(COc1ccc(Cl)cc1Cl)NNc1ccc([N+](=O)[O-])cc1
Result: no

Request: Call for entry C[C@H]1O[C@@H](O[C@H]2[C@@H](O)C[C@H](O[C@H]3[C@@H](O)C[C@H](O[C@H]4CC[C@]5(C)C6CC[C@]7(C)[C@@H](C8=CC(=O)OC8)CC[C@]7(O)C6CC[C@@H]5C4)O[C@@H]3C)O[C@@H]2C)C[C@H](O)[C@@H]1O (stereo partly specified) :
Result: yes

Request: Check the results log: what was the call for Cc1cc(C2CC(O)C(CO)O2)c(Br)cc1Br (stereo unspecified) ?
Result: no

Then there is this molecule:
Request: # fetch the recorded call for C=C1[C@H](O)C[C@@H](C(C)C(O)CC=C(C)C)[C@@H](O)[C@@H]2C(C)=CC[C@@H]12 (stereo partly specified) here
Result: no
